System: NCI-H23 lung
Method notes: NCI tumour cell line growth inhibition, 48 h
// TGI lookup, one value per entry
API: value field is a number in µM; no unit string.

The following molecules have reported results that may help.
Molecule	Unit	TGI
O=C(c1ccc(Cl)cc1)c1cnc(Nc2ccccc2Cl)s1	µM	53.7
CC(C)C1=C(Cc2ccccc2)C(=O)O/C1=C\c1cc(Cl)c(O)c(Cl)c1	µM	32.9
C[C@@H]1CCC2[C@@H](C)[C@@H](OCCO[C@H]3OC4O[C@@]5(C)CCC6[C@H](C)CCC([C@H]3C)[C@@]46OO5)OC3O[C@@]4(C)CCC1[C@]32OO4 (stereo not given in full)	µM	68.9

Ask: Provide the documented TGI with NCI-H23 lung as the system for Cn1cnc([N+](=O)[O-])c1S(=O)(=O)Oc1ccccc1
Result: 37.9

Ask: Field: TGI (NCI-H23 lung). Entry: Cc1ccc(/C=C/c2c(C(=O)/C=C/c3ccc(C(F)(F)F)cc3)c(C)nc3ccccc23)cc1
Result: 3.13

Data origin, for the record: PubChem BioAssay (NCI)
